assay-comment: folding enthalpy; higher = less favourable; fluorescence melt of hairpins on a sequencing array, two-state fit
stated-conditions: sodium 0.088 M
Tag: Condition met if measured folding enthalpy is not below -30 kcal/mol, Condition not met if it is.

sequence_data="GGCAGTCGAAAGACAGCC (((.(((....))).)))" class_assignment="Condition not met"
sequence_data="GGATTAGGAAACCAATCC (((((.(....).)))))" class_assignment="Condition not met"
sequence_data="GGAGATCGAAAGATTCC (((.(((....))))))" class_assignment="Condition met"
sequence_data="GATCCATGATTGGATC ((((((....))))))" class_assignment="Condition not met"
sequence_data="GGGTCTCGAAAGAGTCCC (((.(((....))).)))" class_assignment="Condition not met"

Qu. Quick check, folding enthalpy >= -30 kcal/mol? GGATTCGAAAGAAAATCC ((((((....)))..)))
Ans. Condition met

Qu. I'd appreciate it if you could say whether CAAACGAAAGTTTG (((((....))))) has folding enthalpy at least equal to -30 kcal/mol.
Ans. Condition met

Qu. Threshold query (folding enthalpy >= -30 kcal/mol) on GCGTTTGAAAAAACGC ((((((....))))))
Ans. Condition not met

Qu. Decide: folding enthalpy of GATCTTCATTAAGATC ((((((....)))))) >= -30 kcal/mol?
Ans. Condition not met

Qu. Given GATCACCTGGTGATC ((((((...)))))) , state whether its folding enthalpy is at least -30 kcal/mol.
Ans. Condition not met

Qu. Assess whether reported folding enthalpy for GACACAACGAAAGTTGTC (((..(((....)))))) sits at -30 kcal/mol or higher.
Ans. Condition met

Qu. Determine whether this sequence has folding enthalpy no lower than -30 kcal/mol: TGGTTGAAAAACCA (((((....)))))
Ans. Condition met

Qu. Does the reported folding enthalpy for GGATGCGCGAAAGCGTCC (((..(((....)))))) fall at or above the -30 kcal/mol mark?
Ans. Condition met

Qu. Answer whether folding enthalpy of GATCTTAGTAAGATC ((((((...)))))) is greater than or equal to -30 kcal/mol.
Ans. Condition met

Qu. Reported folding enthalpy reaches at least -30 kcal/mol for GTCACCCCGAAAGGGGAC (((..(((....)))))) ?
Ans. Condition met

Qu. Tell me whether folding enthalpy is at least -30 kcal/mol here: GTATGCGAAAGCATTTAC ((((((....)))..)))
Ans. Condition met

Source listed as the array DNA melting data of Ke et al. (doi:10.1101/2024.01.08.574731).
